Origin of values: ChEMBL document CHEMBL5543097

System: Moraxella catarrhalis
Experiment: Antibacterial activity against Moraxella catarrhalis BCA 19-5 assessed as inhibition of bacterial growth incubated for 24 hrs by CLSI based broth microdilution method
Type: functional
Conditions: Moraxella catarrhalis, BCA 19-5, 24 h, read-out: MIC
ASSAY READOUT: MIC (µg/mL)
Give bare numbers, in µg/mL.

>>> meas_value("CCOc1ccc(NC(=O)OCCCN2C(=O)O[C@]3(C)[C@@H](CC)OC(=O)[C@@](C)(F)C(=O)[C@H](C)[C@@H](O[C@@H]4O[C@H](C)C[C@H](N(C)C)[C@H]4O)[C@](C)(OC)C[C@@H](C)C(=O)[C@H](C)[C@@H]23)cc1")
0.5
>>> meas_value("CC[C@H]1OC(=O)[C@@](C)(F)C(=O)[C@H](C)[C@@H](O[C@@H]2O[C@H](C)C[C@H](N(C)C)[C@H]2O)[C@](C)(OC)C[C@@H](C)C(=O)[C@H](C)[C@H]2N(CCCOC(=O)Nc3c(C)noc3C)C(=O)O[C@]12C")
0.5
>>> meas_value("CC[C@H]1OC(=O)[C@@](C)(F)C(=O)[C@H](C)[C@@H](O[C@@H]2O[C@H](C)C[C@H](N(C)C)[C@H]2O)[C@](C)(OC)C[C@@H](C)C(=O)[C@H](C)[C@H]2N(CCCOC(=O)Nc3cc(C)cc(C)c3)C(=O)O[C@]12C")
1
>>> meas_value("CC[C@H]1OC(=O)[C@@](C)(F)C(=O)[C@H](C)[C@@H](O[C@@H]2O[C@H](C)C[C@H](N(C)C)[C@H]2O)[C@](C)(OC)C[C@@H](C)C(=O)[C@H](C)[C@H]2N(CCCOC(=O)Nc3ccc(C(F)(F)F)cc3)C(=O)O[C@]12C")
0.125

For each of the compounds below, state MIC.
1. CC[C@H]1OC(=O)[C@@](C)(F)C(=O)[C@H](C)[C@@H](O[C@@H]2O[C@H](C)C[C@H](N(C)C)[C@H]2O)[C@](C)(OC)C[C@@H](C)C(=O)[C@H](C)[C@H]2N(CCCOC(=O)Nc3cccc(C(F)(F)F)c3)C(=O)O[C@]12C
2. CC[C@H]1OC(=O)[C@H](C)C(=O)[C@H](C)[C@@H](O[C@@H]2O[C@H](C)C[C@H](N(C)C)[C@H]2O)[C@](C)(OC)C[C@@H](C)C(=O)[C@H](C)[C@H]2N(CCCOC(=O)Nc3cccc(C)c3)C(=O)O[C@]12C
3. CC[C@H]1OC(=O)[C@@](C)(F)C(=O)[C@H](C)[C@@H](O[C@@H]2O[C@H](C)C[C@H](N(C)C)[C@H]2O)[C@](C)(OC)C[C@@H](C)C(=O)[C@H](C)[C@H]2N(CCCOC(=O)Nc3ccccc3C)C(=O)O[C@]12C
4. CC[C@H]1OC(=O)[C@@](C)(F)C(=O)[C@H](C)[C@@H](O[C@@H]2O[C@H](C)C[C@H](N(C)C)[C@H]2O)[C@](C)(OC)C[C@@H](C)C(=O)[C@H](C)[C@H]2N(CCCOC(=O)Nc3ccc(-c4ncccn4)cc3)C(=O)O[C@]12C

[A]
1: 1; 2: 0.5; 3: 0.125; 4: 0.25
